Experiment: clinical
Settings: human, in vivo, maximum plasma concentration (Cmax), mean
property.label: Cmax
# answer = value followed by unit

Cmax reading for O=C(Nc1ccc([N+](=O)[O-])cc1Cl)c1cc(Cl)ccc1O [niclosamide ethanolamine] : 239 ng/mL

----------
Assay: in vitro
Conditions: African green monkey
property.label: CC50

For O=C(Nc1ccc([N+](=O)[O-])cc1Cl)c1cc(Cl)ccc1O [niclosamide ethanolamine] the molecule record lists CC50 as > 10 µM

----------
Assay: in vitro
Details: human
property.label: CC50

Just so you know, measured CC50 for O=C(Nc1ccc([N+](=O)[O-])cc1Cl)c1cc(Cl)ccc1O [niclosamide ethanolamine] came out at > 10 µM

----------
System: SARS-CoV-2 D614 strain
Assay: microbe, parasite or virus in culture
Assay type: cell-based
Details: Severe acute respiratory syndrome coronavirus 2; VeroE6 TMPRSS2 cells; read-out: EC50 against D614 strain
property.label: EC50

Record O=C(Nc1ccc([N+](=O)[O-])cc1Cl)c1cc(Cl)ccc1O [niclosamide ethanolamine] , field EC50: 130 nM
